Entry source: the supplement of paper PMC10567573

B1: ANKRD40 (parent)
chain: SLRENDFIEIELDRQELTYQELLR

Variants of: B1
PROTOCOL: protein stability index of a GFP-peptide fusion (GPS, HEK-293T) (PSI 1-6); higher = more stable;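 also: lentivirally expressed fusions sorted by FACS into six bins by GFP to DsRed ratio, PSI derived from sequencing read proportions per bin multiplied by bin number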
CONDITION_SUMMARY: c terminus: a fixed tail appended
# reported protein stability index; entries follow
// print number alone

R14Y = 1.95

Value lookup for protein stability index; key = E16K 2.93

Value lookup for protein stability index; key = L2R 2.8

Value lookup for protein stability index; key = Q20R 2.3

Value lookup for protein stability index; key = I10P 4.24

Value lookup for protein stability index; key = Q20T 2.97
